# Target: full-length beta-Catenin (Uniprot ID P35222) (Homo sapiens (Human)) (UniProt P35222)
# Test method notes: fluorescence polarization competition; full-length beta-catenin with 5FAM-TCF4(10-53) probe as competitor
Starred links: 1 amine or outer side, 2 acyl side, 3 side chain; linkers in the order of their positions; H or OH if unused. Positions of bridges follow the written chain, without caps; N, C: chain ends. Non-standard residues stand in square brackets, D forms with d. Primed or numbered codes have the meaning given here. No end group written: not given here. PyrS2″ = (S)-3-amino-1-((pent-4-en-1-yloxy)carbonyl)pyrrolidine-3-carboxylic acid (stapling residue), C=CCCCOC(=O)N1CC[C@@](N[*:1])(C(=O)[*:2])C1; B5(4) = 2,2-bis(4-pentenyl)glycine = 2-amino-2-(pent-4-en-1-yl)hept-6-enoic acid (stitching residue), C=CCCCC(CCCC=C)(N[*:1])C(=O)[*:2]; B5(5) = 2,2-bis(4-pentenyl)glycine, 2-amino-2-(pent-4-en-1-yl)hept-6-enoic acid (stitching residue), C=CCCCC(CCCC=C)(N[*:1])C(=O)[*:2]; PyrS2 = (S)-3-amino-1-((pent-4-en-1-yloxy)carbonyl)pyrrolidine-3-carboxylic acid, C=CCCCOC(=O)N1CC[C@@](N[*:1])(C(=O)[*:2])C1; EtGA = (S)-2-amino-3-((carboxymethyl)(ethyl)amino)propanoic acid, CCN(CC(=O)[*:3])C[C@H](N[*:1])C(=O)[*:2]; Phe(4-CF3) = N[C@@H](Cc1ccc(C(F)(F)F)cc1)C(=O)O; Phe(4-COOH) = N[C@@H](Cc1ccc(C(=O)O)cc1)C(=O)O; Bta = N[C@@H](Cc1csc2ccccc12)C(=O)O; αAllylPro = C=CC[C@@]1(C(=O)O)CCCN1; tBuAla = CC(C)(C)C[C@H](N)C(=O)O; 3Thi = N[C@@H](Cc1ccsc1)C(=O)O; S8 = C=CCCCCCC[C@](C)(N)C(=O)O; Abu = CC[C@H](N)C(=O)O
Result type: IC50 (nM)

a = [αAllylPro]D[tBuAla][B5(4)]DDAAFS[PyrS2″]F[Bta]S-NH2 (staple 1-4, 4-11; not fully specified; printed as PL3-Asp-Npg-B5-Asp-Asp-Ala-Ala-Phe-Ser-PyrS2-Phe-BztA-Ser-NH2) [I-1356]
b = Ac-[αAllylPro]D[Abu][B5(4)]DEAAFN[S8]F[Bta]Q-NH2 (staple 1-4, 4-11) [I-473]
c = Ac-[αAllylPro]DI[B5(5)]D[EtGA]AAFQ[S8]F[Bta]Q-NH2 (staple 1-4, 4-11; also: staple isomer 2, later eluting HPLC peak) [I-609]
d = Ac-[αAllylPro]D[tBuAla][B5(4)]DDAAF[Phe(4-CF3)][PyrS2][3Thi][Bta]Q-NH2 (staple 1-4, 4-11) [I-1365]
e = Ac-[αAllylPro]DI[B5(5)]D[Phe(4-COOH)]AAFQ[S8]F[Bta]Q-NH2 (staple 1-4, 4-11) [I-607]
// query Sort the list above on IC50 in ascending fashion. Answer by writing out the labels in the requested order.
// result d, a, c, b, e
(d: 9 nM, a: 23 nM, c: 80 nM, b: 121 nM, e: 253 nM)
